# Hepatotoxicity (cytolytic) annotations
measurement-context: human
Would you mind answering with just the numeric figure?

- smiles: "CCn1cc(C(=O)O)c(=O)c2cc(F)c(N3CCN(C)CC3)cc21"
  Hepatotoxicity (cytolytic): 0
- smiles: "CCOC(=O)Nc1ccc(NCc2ccc(F)cc2)nc1N"
  Hepatotoxicity (cytolytic): 0

Q: For C[C@H]([C@](O)(Cn1cncn1)c1ccc(F)cc1F)S(C)(=O)=O , write its Hepatotoxicity (cytolytic).
Ans: 0

====

measurement-context: human
The entries below are paired with their reported Hepatotoxicity (severe hepatitis).
Just the number, please.

These solved cases illustrate the format of a correct answer.
- compound: "CC(C(=O)O)c1ccc(-c2ccccc2)c(F)c1 (stereo not given)"
  Hepatotoxicity (severe hepatitis): 0
- compound: "C[C@]12CC[C@@H]3c4ccc(OC(=O)N(CCCl)CCCl)cc4CC[C@H]3[C@@H]1CC[C@@H]2O"
  Hepatotoxicity (severe hepatitis): 0
- compound: "CCN1CCC[C@H]1CNC(=O)c1c(OC)ccc(Br)c1OC [REMOXIPRIDE]"
  Hepatotoxicity (severe hepatitis): 0
- compound: "CC(N)C(=O)OC(C)(C)Cc1ccc(Cl)cc1 (stereo not given) [ALAPROCLATE]"
  Hepatotoxicity (severe hepatitis): 0
- compound: "O=C(O)c1cc(/N=N/c2ccc(S(=O)(=O)Nc3ccccn3)cc2)ccc1O"
  Hepatotoxicity (severe hepatitis): 11
- compound: "CCOc1ccc2ccccc2c1C(=O)N[C@@H]1C(=O)N2[C@@H]1SC(C)(C)[C@@H]2C(=O)O"
  Hepatotoxicity (severe hepatitis): 0

Q: Respond only with Hepatotoxicity (severe hepatitis) recorded for CCOC(=O)Nc1ccc2c(c1)N(C(=O)CCN1CCOCC1)c1ccccc1S2
Ans: 0

Q: Please indicate Hepatotoxicity (severe hepatitis) recorded for CC(C)(Oc1ccc(C2CC2(Cl)Cl)cc1)C(=O)O (stereo not given) [CIPROFIBRATE]
Ans: 1

Q: Supply reported Hepatotoxicity (severe hepatitis) belonging to this compound: O=C(O)c1ccccc1Nc1cccc(C(F)(F)F)c1
Ans: 0

Q: Query Hepatotoxicity (severe hepatitis) for NC(=O)CCC/N=C(\c1ccc(Cl)cc1)c1cc(F)ccc1O [PROGABIDE]
Ans: 4

Q: Provide one value: measured Hepatotoxicity (severe hepatitis) of CO[C@@]1(NC(=O)C2SC(=C(C(N)=O)C(=O)O)S2)C(=O)N2C(C(=O)O)=C(CSc3nnnn3C)CS[C@@H]21 (stereo not given in full)
Ans: 0

Q: State its Hepatotoxicity (severe hepatitis) for this compound: Cc1ccc(S(=O)(=O)NC(=O)NN2CCCCCC2)cc1 [TOLAZAMIDE]
Ans: 1

Q: Quick one: give measured Hepatotoxicity (severe hepatitis) for CN[C@@H]1[C@@H](O)[C@@H](O[C@@H]2[C@@H](O)[C@H](O[C@H]3OC(CN)=CC[C@H]3N)[C@@H](N)C[C@H]2N)OC[C@]1(C)O
Ans: 0

Q: Answer with the recorded Hepatotoxicity (severe hepatitis) for the compound listed here: CC(=O)Nc1ccc(OCC(O)CNC(C)C)cc1 (stereo not given)
Ans: 0

Q: Supply Hepatotoxicity (severe hepatitis) value. Item: Fc1ccccc1C1=NCC(=S)N(CC(F)(F)F)c2ccc(Cl)cc21
Ans: 0

Q: Give the measured Hepatotoxicity (severe hepatitis) for COCCCN1CCC(NC(=O)c2cc(Cl)c(N)c3c2OCC3)CC1 [PRUCALOPRIDE]
Ans: 0

====

Overview of reported Hepatotoxicity (cytolytic) across a group of molecules:
measurement-context: human

Example entries begin here.
- molecule: "CN1C(CSCC(F)(F)F)Nc2cc(Cl)c(S(N)(=O)=O)cc2S1(=O)=O (stereo unspecified) [POLYTHIAZIDE]"
  Hepatotoxicity (cytolytic): 1
- molecule: "c1ccc2c(CCC3CCNCC3)c[nH]c2c1 [INDALPINE]"
  Hepatotoxicity (cytolytic): 1
- molecule: "CCCc1cc(C(N)=S)ccn1 [PROTIONAMIDE]"
  Hepatotoxicity (cytolytic): 4
- molecule: "CN1CCCN(C(c2ccccc2)c2ccc(Cl)cc2)CC1 (stereo unspecified) [HOMOCHLORCYCLIZINE]"
  Hepatotoxicity (cytolytic): 1
- molecule: "NS(=O)(=O)c1cc(C2(O)NC(=O)c3ccccc32)ccc1Cl (stereo unspecified) [CHLORTHALIDONE]"
  Hepatotoxicity (cytolytic): 0
- molecule: "O=C1c2ccccc2C(=O)C1c1ccc(F)cc1 [FLUINDIONE]"
  Hepatotoxicity (cytolytic): 5
- molecule: "CCOC(=O)NC1=C(N2CC2)C(=O)C(NC(=O)OCC)=C(N2CC2)C1=O [DIAZIQUONE]"
  Hepatotoxicity (cytolytic): 0
- molecule: "CCOc1cc(CC(=O)N[C@@H](CC(C)C)c2ccccc2N2CCCCC2)ccc1C(=O)O [REPAGLINIDE]"
  Hepatotoxicity (cytolytic): 0

Q: Read the entry CC(C)(Oc1ccc(Cl)cc1)C(=O)NC(=O)NCN1CCOCC1 [PLAFIBRIDE] and write its reported Hepatotoxicity (cytolytic).
Ans: 0

Q: Given the molecule Cc1ccc(C(=O)c2ccc(CC(=O)O)n2C)cc1 [TOLMETIN] , write its reported Hepatotoxicity (cytolytic).
Ans: 0

Q: Write down Hepatotoxicity (cytolytic) measured for item CCN(CC)CCn1c(-c2ccccc2)noc1=N [IMOLAMINE]
Ans: 0
